Hey, just so you know, these numbers are from patent US12497460B2.

- TARGET_OR_SYSTEM: HMM-mfMSR1 (monkey MSR1 extracellular domain)
- Sequence (as listed by the source): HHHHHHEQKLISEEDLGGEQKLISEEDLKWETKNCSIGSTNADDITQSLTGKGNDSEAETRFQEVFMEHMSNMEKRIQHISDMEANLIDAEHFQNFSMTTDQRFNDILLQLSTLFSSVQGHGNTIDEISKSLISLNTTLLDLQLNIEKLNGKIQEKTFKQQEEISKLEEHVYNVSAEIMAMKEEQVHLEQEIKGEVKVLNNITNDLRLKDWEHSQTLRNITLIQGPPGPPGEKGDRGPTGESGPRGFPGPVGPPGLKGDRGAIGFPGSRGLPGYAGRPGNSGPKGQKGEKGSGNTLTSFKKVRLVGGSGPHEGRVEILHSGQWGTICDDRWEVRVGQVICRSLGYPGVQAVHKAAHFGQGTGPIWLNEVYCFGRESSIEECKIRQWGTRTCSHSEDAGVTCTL
- MEASUREMENT_PROTOCOL: Biacore surface plasmon resonance binding kinetics of anti-MSR1 mAbs, antibody-capture format
- RUN_CONDITIONS: 37° C.; analyte HMM-mfMSR1; * = no dissociation observed, kd manually fixed at 1.00E−05; NB = no binding observed
- Experimental: Binding affinities and kinetic constants of human anti-MSR1 antibodies for different MSR1 reagents were determined by real-time surface plasmon resonance (Biacore 4000). […] The association rate (ka) and dissociation rate (kd) were determined by fitting the real-time binding sensorgrams to a 1:1 binding model with mass transport limitation using Scrubber 2.0c curve-fitting software. […]
Hi there, I'd appreciate the recorded kd for every entry that follows.
Enter your answer as a number in s⁻¹; do not include the unit.

Input line: Bench note: what kd did H1H27729P-N297Q: anti-MSR1 antibody "made with an N297Q single point mutation in human Fcγ portion" (antibody, V domains shown) VH: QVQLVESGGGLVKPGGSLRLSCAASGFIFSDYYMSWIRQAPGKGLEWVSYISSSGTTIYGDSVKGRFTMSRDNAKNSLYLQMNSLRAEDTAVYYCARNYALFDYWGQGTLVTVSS VL: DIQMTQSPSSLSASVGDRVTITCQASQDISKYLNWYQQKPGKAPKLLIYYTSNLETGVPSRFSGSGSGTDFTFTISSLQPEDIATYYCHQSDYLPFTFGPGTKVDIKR show?
Output line: 0.00349

Input line: Bench note: what kd did H1H27734P-N297Q: one of "Twelve anti-MSR1 antibodies"; "made with an N297Q single point mutation in human Fcγ portion" (antibody, V domains shown) VH: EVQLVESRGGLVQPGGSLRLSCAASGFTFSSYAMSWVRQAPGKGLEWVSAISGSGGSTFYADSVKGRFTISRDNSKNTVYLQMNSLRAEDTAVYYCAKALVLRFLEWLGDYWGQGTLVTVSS VL: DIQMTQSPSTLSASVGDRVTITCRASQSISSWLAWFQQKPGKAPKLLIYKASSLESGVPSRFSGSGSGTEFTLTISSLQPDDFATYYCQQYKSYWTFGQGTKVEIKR show?
Output line: 0.0032
